Compiled notes: published IC50 values involving aldosterone synthase (CYP11B2) (Macaca fascicularis, UniProt A0A2K5UPL9).
Flag rule - IC50 less than 200 nM flags Fulfilled; the remaining entries get Not fulfilled.

IC50 under 200 nM? Item: CCS(=O)(=O)NC1COCc2c(-c3ccc4nnn(C)c4c3)cncc21 (single isomer, unassigned) Fulfilled

Please determine if Cn1cc2ccc(-c3cncc4c3COCC4O)cc2n1 (single isomer, unassigned) is below 200 nM in terms of IC50. Not fulfilled

# check: IC50 < 200 nM for O=c1ccc2cc(-c3cncc4c3COCC4O)ccc2o1 (single isomer, unassigned) Fulfilled

Item OC1COCc2c(-c3ccn4ccnc4c3)cncc21 (single isomer, unassigned) : IC50 beneath 200 nM, strictly? Not fulfilled

Regarding `CC1(C)CC(=O)c2c(noc2Cc2ccc(C#N)cc2)C1` , kindly confirm whether its IC50 is beneath 200 nM. Fulfilled

Here's an entry: CCC(=O)NC1COCc2c(-c3ccc4c(c3)C(O)CCO4)cncc21 (single isomer, unassigned) . Is its IC50 below 200 nM? Not fulfilled

Find out if reported IC50 for OC1COCc2c(-c3ccc4[nH]ccc4c3)cncc21 (single isomer, unassigned) is less than 200 nM Fulfilled

Given NC(=O)N1CCCc2cc(-c3cncc4c3COCC4O)cnc21 (single isomer, unassigned) , is recorded IC50 strictly lower than 200 nM? Fulfilled

is_below(IC50, 200 nM) for Cn1nc(F)c2ccc(-c3cncc4c3COCC4O)cc21 (single isomer, unassigned) ? Fulfilled

Record `CC1(C)Cc2ncn(-c3ccc(C#N)cc3F)c2C(=O)O1` : is its IC50 strictly below 200 nM? Fulfilled

I'd appreciate it if you could check whether Cn1nc(C#N)c2ccc(-c3cncc4c3COCC4(C)O)cc21 (single isomer, unassigned) has IC50 smaller than 200 nM. Fulfilled

Please indicate whether the reported IC50 of CC(C)(C)OC(=O)NCC1(C)Cc2ncn(-c3ccc(F)c(F)c3)c2C(=O)O1 (stereo not drawn) is strictly below 200 nM. Fulfilled

Threshold test, IC50 < 200 nM: CC(=O)NC1COCc2c(-c3ccc4c(c3)CCC4=O)cncc21 (single isomer, unassigned) Not fulfilled

# TODO verify IC50 < 200 nM strictly for this compound: OC1COCc2c(-c3ccc4ncccc4c3)cncc21 (single isomer, unassigned) Fulfilled

IC50 under 200 nM? Item: OC1COCc2c(-c3ccc4cnccc4c3)cncc21 (single isomer, unassigned) Fulfilled

---

Collected literature values of pIC50 measured for aldosterone synthase (CYP11B2) (Macaca fascicularis, UniProt A0A2K5UPL9).
In plain terms, pIC50 is the concentration in mol/L turned into minus its base-10 logarithm.

Hello, I am looking for reported pIC50 with aldosterone synthase (CYP11B2) (Macaca fascicularis, UniProt A0A2K5UPL9) for CCS(=O)(=O)NC1COCc2c(-c3ccc4c(C)n[nH]c4c3)cncc21 (single isomer, unassigned) . Could you help? 6.00

Give aldosterone synthase (CYP11B2) (Macaca fascicularis, UniProt A0A2K5UPL9) pIC50 for `CC1(C)Cc2noc(Cc3ccc(C(=O)NCCS(C)(=O)=O)cc3)c2C(=O)O1` 7.38

Recorded pIC50 for `CC1(C)CC(=O)c2c(noc2Cc2ccc(OCCCS(C)(=O)=O)cc2)C1` with aldosterone synthase (CYP11B2) (Macaca fascicularis, UniProt A0A2K5UPL9), please? 7.23

Can you look up pIC50 on aldosterone synthase (CYP11B2) (Macaca fascicularis, UniProt A0A2K5UPL9) for Cc1n[nH]c2cc(-c3cncc4c3COCC4O)ccc12 (single isomer, unassigned) ? 6.16

Recall the recorded pIC50 for Cn1ncc2cc(-c3cncc4c3COCC4O)ccc21 (single isomer, unassigned) with aldosterone synthase (CYP11B2) (Macaca fascicularis, UniProt A0A2K5UPL9) and state it. 7.76

Requested read-out pIC50, target or system aldosterone synthase (CYP11B2) (Macaca fascicularis, UniProt A0A2K5UPL9), entry `CC1(C)Cc2noc(Cc3ccc(C(=O)N4CC[C@@H](O)C4)cc3)c2C(=O)O1` 7.14

Recorded pIC50 for Cn1ncc2ccc(-c3cncc4c3COCC4O)cc21 (single isomer, unassigned) with aldosterone synthase (CYP11B2) (Macaca fascicularis, UniProt A0A2K5UPL9), please? 7.31

Tell me reported pIC50 for Cn1ncc2c(F)cc(-c3cncc4c3COCC4O)cc21 (single isomer, unassigned) , tested with aldosterone synthase (CYP11B2) (Macaca fascicularis, UniProt A0A2K5UPL9). 8.09

Item Cn1cc(-c2cncc3c2COCC3O)cn1 (single isomer, unassigned) with aldosterone synthase (CYP11B2) (Macaca fascicularis, UniProt A0A2K5UPL9) - pIC50? 5.57

Value wanted: pIC50 (aldosterone synthase (CYP11B2) (Macaca fascicularis, UniProt A0A2K5UPL9)) of entry `CC1(C)CC(=O)c2c(noc2Cc2ccc(C(=O)NCCC#N)cc2)C1` 6.80

Param readout= pIC50; system= aldosterone synthase (CYP11B2) (Macaca fascicularis, UniProt A0A2K5UPL9); entry= CC1Cc2ncn(-c3ccc(Cl)c(Cl)c3)c2C(=O)O1 (stereo not drawn) ; returns value. 8.07

# value lookup — system aldosterone synthase (CYP11B2) (Macaca fascicularis, UniProt A0A2K5UPL9), readout pIC50, item CCC(=O)NC1COCc2c(-c3ccc4[nH]nc(C)c4c3)cncc21 (single isomer, unassigned) 7.44

For aldosterone synthase (CYP11B2) (Macaca fascicularis, UniProt A0A2K5UPL9), provide pIC50 of `N#Cc1ccc(-n2cnc3c2C(=O)OCC3)cc1` please. 6.38

What pIC50 appears in the records for this compound with aldosterone synthase (CYP11B2) (Macaca fascicularis, UniProt A0A2K5UPL9)? `N#Cc1ccc(Cc2onc3c2C(=O)CC2(CCC2)C3)cc1` 7.26

Hi! What's the reported pIC50 for `CC1(C)Cc2ncn(-c3ccc(F)cc3)c2C(=O)O1` on aldosterone synthase (CYP11B2) (Macaca fascicularis, UniProt A0A2K5UPL9)? 6.89

Query pIC50 on aldosterone synthase (CYP11B2) (Macaca fascicularis, UniProt A0A2K5UPL9) for `CC1(C)Cc2ncn(-c3ccc(Cl)c(C#N)c3)c2C(=O)O1` 6.54

GET /values?readout=pIC50&system=aldosterone synthase (CYP11B2) (Macaca fascicularis, UniProt A0A2K5UPL9)&item= CC(C)C1CC(=O)c2c(noc2Cc2ccc(OCCCS(C)(=O)=O)cc2)C1 (stereo not drawn) 7.70

So what pIC50 did CC1CC(=O)c2c(noc2Cc2ccc(C(=O)N3CCN(C)C(=O)C3)cc2)C1 (stereo not drawn) get with aldosterone synthase (CYP11B2) (Macaca fascicularis, UniProt A0A2K5UPL9)? 6.92
